- procedureSummary: qHTS Assay for Lipid Storage Modulators in Drosophila S3 Cells;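 also: cells counted by Cell Tracker Red CMTPX staining in the red channel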
- conditionParameters: BODIPY lipid droplet fluorescence, 18-24 h, cells fed with added oleic acid; measured here: cell count max response
Out of some 320,000 compounds screened, about 2,100 (0.66%) were called active. Inconclusive results (about 53%) are left out. What follows is part of a selection rich in actives, with near analogues and random picks from the rest.
Some compounds, each annotated with its measured cell number change.
quantityKind: cell number change (%)

INSERT INTO results (molecule, number) VALUES
  ('Cc1c(C(=O)O)sc2nc(/C=C/c3cccc(O)c3)[nH]c(=O)c12', 5.19),
  ('O=C1/C(=C\c2cccs2)Sc2ccc3ccccc3c21', -14.8),
  ('COc1ccc(CNc2nc(S(=O)(=O)c3ccccc3)c(Cl)s2)cc1OC', -10.4),
  ('Cc1ccccc1N(Cc1cc(=O)[nH]c2ccccc12)C(=O)CCl', 13.2),
  ('Cc1cccc(N(Cc2cc(=O)[nH]c3ccccc23)C(=O)C(C)C)c1', -7.9),
  ('COc1ccc(C(=O)N/C(=C\c2cn(C)c3ccccc23)C(=O)N2CCOCC2)cc1OC', 9.92),
  ('CCOC(=O)/C(=C\c1cccc(O)c1)c1nc2sc(C)c(C)c2c(=O)[nH]1', -21.1),
  ('O=C1/C(=C/c2cccnc2)CC/C1=C\c1cccnc1', -4.02),
  ('CCOC(=O)c1nc2sc(C)c(C)c2c(=O)[nH]1', -3.45),
  ('NC1=NC(=O)/C(=C/c2cccs2)S1', -5.63),
  ('Cc1cccc(N(Cc2cc(=O)[nH]c3ccccc23)C(=O)CCl)c1', -1.53);
